# maps each entry to its TGI
test system: SF-539 CNS; test: NCI tumour cell line growth inhibition, 48 h
Respond numerically; units are µM and should not be typed.

The examples below pair each entry with its known result.
> print(dat)
                                   molecule  test.readout  measured
1  O=C1/C(=C/c2ccccc2)CN(CCC(=O)N2C/C(=C\c3ccccc3)C(=O)/C(=C/c3ccccc3)C2)C/C1=C\c1ccccc1           TGI      50.6
2  NC(=O)c1cc(Cl)ccc1NC(=O)c1ccccc1-c1ccccc1           TGI      1.89

Ask: I have this molecule here, COc1cccc(-c2nc(-c3ccc(NC(=O)c4ccccc4)cc3)[nH]c2-c2ccnc(Br)c2)c1 , and I need its recorded TGI.
Reply: 12.6

Ask: I have this molecule here, CC(=N/NC(=S)N1CCCCC1)/C(C)=N\NC(=S)N1CCCCC1 , and I need its recorded TGI.
Reply: 5.58

Ask: I have this molecule here, CN(C)CCCn1c(-c2cc(C(C)(C)C)c(O)c(C(C)(C)C)c2)csc1=Nc1ccccc1 , and I need its recorded TGI.
Reply: 3.38

Ask: I have this molecule here, COc1ccc(Nc2nc(N)c(C(=O)c3ccccc3)s2)cc1 , and I need its recorded TGI.
Reply: 0.0327

Ask: I have this molecule here, Cc1cccc2c1NC(=O)[C@@]21[C@H](C(=O)c2ccccc2)[C@]2(C(=O)Nc3ccccc32)[C@H]2CCCN21 , and I need its recorded TGI.
Reply: 48.9

Taken from PubChem BioAssay (NCI).
